Reported melting point values follow for various compounds

Examples with answers:
CN1CC(C(=O)c2oc(C(C)(C)C)cc2Cc2ccc(F)cc2)=C(O)C1=O	179 to 181 °C
CCNC(=O)c1cc(C(=O)C2=C(O)C(=O)N(C)C2)oc1Cc1ccc(F)cc1	169 to 170 °C
CN1CC(C(=O)c2sccc2Cc2ccc(F)cc2)=C(O)C1=O	181 to 183 °C
CCN1CC(C(=O)c2occc2Cc2ccc(F)cc2)=C(O)C1=O	167 °C
Cc1[nH]cc(C(=O)c2ccc(Cc3ccc(F)cc3)o2)c(=O)c1O	190 to 192 °C
CC(C)(C)c1cc(Cc2ccc(F)cc2)c(C(=O)C2=C(O)C(=O)N(C3CC3)C2)o1	148 to 150 °C
N#Cc1cc(=O)c(O)c(C(=O)c2ccc(Cc3ccc(F)cc3)o2)o1	190 to 194 °C (dec.)
CN1CC(C(=O)c2oc(C3CCCCC3)cc2Cc2ccc(F)cc2)=C(O)C1=O	175 to 176 °C
Cc1nc(-c2oc3cccc(OCc4ccc(F)cc4)c3c(=O)c2O)n[nH]1	289 to 292 °C
CN1CC(C(=O)c2ncc(Cc3ccc(F)cc3)s2)=C(O)C1=O	230 to 231 °C

Q. Give me measured melting point, please, for this compound: `CC(C)N1CC(c2ccc(Oc3ccc(F)cc3)nn2)=C(O)C1=O`
A. 204 to 206 °C

Q. Supply reported melting point belonging to this compound: `O=C(c1ccc(Cc2ccc(F)cc2)o1)c1occc(=O)c1O`
A. 157 to 159 °C

Q. Return value of melting point for input CC(C)N1C(=O)C(O)=C(C(=O)c2ccc(Cc3ccc(F)cc3)o2)C1C (stereo not drawn) , no commentary.
A. 120 to 122 °C

Q. Return value of melting point for input `COC(=O)c1cc(=O)c(O)c(C(=O)c2ccc(Cc3ccc(F)cc3)o2)o1` , no commentary.
A. 174 to 176 °C

Q. Consider the compound `CC(C)N1CC(C(=O)c2oc(C(C)(C)C)cc2Cc2ccc(F)cc2)=C(O)C1=O` . State its measured melting point.
A. 146 to 147 °C

Q. Input `Cn1ncnc1-c1oc2c(Br)ccc(OCc3ccc(F)cc3)c2c(=O)c1O` , output reported melting point.
A. 220 to 223 °C

Q. # return recorded melting point for entry `CC(C)N1CC(c2ncnc(OCc3ccc(F)cc3)n2)=C(O)C1=O`
A. 105 to 106 °C

Q. Write down melting point measured for item `O=c1c(O)c(-c2ncn(Cc3ccc(F)cc3)n2)oc2ccccc12`
A. 260 to 262 °C

###

We begin with a simple list: items and their reported log10 of IC50.
# assay target: integrase (Human immunodeficiency virus type 1 group M subtype B)
# protocol notes: Integrase inhibition assay (microtiter plate strand transfer, substrate DNA/target DNA, anti-digoxigenin ELISA)
# Assay type: biochemical
# experimental parameters: concentration of the compound at percent inhibition 50%; 30° C. for 1 hour; OD at 405 nm; read-out: IC50 (converted)
log10 IC50, µM

Worked set:
CN1CC(c2cc(OCc3ccccc3)ncn2)=C(O)C1=O [Compound B-12]	-0.01
O=C(c1ccc(Cc2ccc(F)cc2)o1)c1occc(=O)c1O [Compound E-8]	-0.35

Q. Indicate the recorded log10 of IC50 value for this molecule: O=C(C1=C(O)C(=O)N(C2CC2)C1)c1ccc(Cc2ccc(F)cc2)o1 [Compound A-17]
A. 0.37

Q. State its log10 of IC50 for this molecule: Cc1[nH]cc(C(=O)c2ccc(Cc3ccc(F)cc3)o2)c(=O)c1O [Compound M-6]
A. 0.95

Q. For Cn1ccc(-c2nnc(Cc3ccc(F)cc3)o2)c(O)c1=O [Compound K-4] , write its log10 of IC50.
A. 0.28

###

measured attribute: melting point

Worked examples follow.
Cn1ncnc1-c1oc2cccc(OCc3ccc(F)cc3)c2c(=O)c1O [Compound C-39]	215 to 216 °C
O=C(NCc1ccc(F)cc1)c1oc2ccccc2c(=O)c1O	235 to 236 °C
CN1CC(C(=O)c2oc(C(=O)N3CCOCC3)cc2Cc2ccc(F)cc2)=C(O)C1=O	209 to 211 °C (dec.)
O=C(C1=C(O)C(=O)N(C2CC2)C1)c1ccc(Cc2ccc(F)cc2)o1 [Compound A-17]	158 to 159 °C
CC(C)N1CC(c2cc(C(Cc3ccc(F)cc3)Cc3ccc(F)cc3)ncn2)=C(O)C1=O	181 to 183 °C

Q. Note melting point for the compound shown: `CC(C)N1CC(c2ccc(Oc3ccc(F)cc3)cn2)=C(O)C1=O`
A. 178 to 179 °C

Q. Please supply the value of reported melting point for the item `CN1CC(C(=O)c2oc(C3CCS(=O)(=O)CC3)cc2Cc2ccc(F)cc2)=C(O)C1=O`
A. 200 to 203 °C

Q. Respond only with melting point recorded for O=C(C1=C(O)C(=O)N(CC(O)CO)C1)c1ccc(Cc2ccc(F)cc2)o1 (stereo not drawn)
A. 119 to 120 °C

Q. Complete the entry with melting point for Cc1cc(=O)c(O)c(C(=O)c2ccc(Cc3ccc(F)cc3)o2)o1 [Compound E-16]
A. 173 to 175 °C

Q. In one line, give reported melting point of the entry `C=CCN1CC(C(=O)c2ccc(Cc3ccc(F)cc3)o2)=C(O)C1=O` .
A. 95 to 96.5 °C

Q. Answer with the recorded melting point for the compound listed here: `O=c1c(O)c(-c2ncc(Oc3ccccc3)cn2)oc2ccccc12`
A. 212 °C

Q. Report melting point, nothing else, for this compound: `Cc1cc(Cc2ccc(F)cc2)c(C(=O)C2=C(O)C(=O)N(C(C)C)C2)o1`
A. 125 to 127 °C

Q. Hello, please tell me recorded melting point for this one: `CN(C)C(=O)c1cc(OCc2ccc(F)cc2)c2c(=O)c(O)c(-c3ncnn3C)oc2c1`
A. 227 to 229 °C

Q. Report melting point, nothing else, for this compound: `CC(C)N1CC(c2ncc(Oc3ccc(F)cc3)cn2)=C(O)C1=O`
A. 165 to 166 °C

###

Each entry below carries its recorded IC50.
# assay target: integrase (Human immunodeficiency virus type 1 group M subtype B, UniProt P04585)
# protocol notes: Integrase inhibition assay (microtiter plate strand transfer, substrate DNA/target DNA, anti-digoxigenin ELISA)
# Type: biochemical
# experimental parameters: concentration of the compound at percent inhibition 50%; 30° C. for 1 hour; OD at 405 nm; read-out: IC50 (converted)
Give just the number in nM; leave the unit off.

Cc1nc(=O)c(O)c(-c2ccc(Cc3ccc(F)cc3)cn2)[nH]1	1540
CN1CC(C(=O)c2cccc(Cc3ccc(F)cc3)c2)=C(O)C1=O	1010
O=c1c(O)c(-c2nnc(Cc3ccc(F)cc3)o2)[nH]c2ccccc12	1330
CN1CC(c2ccc(Cc3ccc(F)cc3)cn2)=C(O)C1=O	402
CC(C)Oc1cc(F)ccc1Cc1ccc(C(=O)C2=C(O)C(=O)N(C)C2)o1	1820

Q. Name the recorded IC50 of `Cc1cc(=O)c(O)c(C(=O)c2ccc(Cc3ccc(F)cc3)o2)o1` , assay system integrase (Human immunodeficiency virus type 1 group M subtype B, UniProt P04585).
A. 366

Q. Determine reported IC50 for `COC(C)(C)c1cc(Cc2ccc(F)cc2)c(C(=O)C2=C(O)C(=O)N(C)C2)o1` ; test system: integrase (Human immunodeficiency virus type 1 group M subtype B, UniProt P04585).
A. 1730

###

The following molecules are listed with their measured melting point values.

Field: example entries. Status: answers known.
CN1CC(c2ccc(Cc3ccc(F)cc3)cn2)=C(O)C1=O [Compound B-29]	204 to 206 °C
COCCN1CC(C(=O)c2occc2Cc2ccc(F)cc2)=C(O)C1=O	170 °C
CN1CC(c2ccc(Oc3ccccc3)nn2)=C(O)C1=O	220 to 225 °C
O=C1C(O)=C(c2cc(CCc3ccccc3)ncn2)CN1C1CCCCC1 [Compound B-6-d]	248 to 250 °C

Now look at this entry.
Q. Return melting point (reported value) for this molecule: `CC(C)N1CC(c2ccc(Oc3ccccc3)nn2)=C(O)C1=O`
A. 203 to 205 °C

###

# assay target: integrase (Human immunodeficiency virus type 1 group M subtype B)
# protocol notes: Integrase inhibition assay (microtiter plate strand transfer, substrate DNA/target DNA, anti-digoxigenin ELISA)
# Type: biochemical
# experimental parameters: concentration of the compound at percent inhibition 50%; 30° C. for 1 hour; OD at 405 nm; read-out: IC50 (converted)
Checkbox rule: IC50 lower than 800 nM = y; IC50 not lower than 800 nM = n.

Consider the following illustrative entries.
CN1CC(C(=O)c2occc2Cc2ccc(F)cc2)=C(O)C1=O [Compound A-50]	y
O=c1c(O)c(-c2ccccn2)oc2cccc(OCc3ccc(F)cc3)c12 [Compound C-22]	n
CN1CC(c2ncc(OCc3ccc(F)cc3)cn2)=C(O)C1=O [Compound B-68]	y

Okay, now this compound:
Q. A record lists Cn1ncnc1-c1oc2cccc(OCc3ccc(F)cc3)c2c(=O)c1O [Compound C-39] . Is its IC50 below 800 nM?
A. y
